Items are presented alongside their recorded log2 fold change.
measured_on: ZNF622 (UniProt Q969S3)
Sequence (Q969S3 whole entry, looked up): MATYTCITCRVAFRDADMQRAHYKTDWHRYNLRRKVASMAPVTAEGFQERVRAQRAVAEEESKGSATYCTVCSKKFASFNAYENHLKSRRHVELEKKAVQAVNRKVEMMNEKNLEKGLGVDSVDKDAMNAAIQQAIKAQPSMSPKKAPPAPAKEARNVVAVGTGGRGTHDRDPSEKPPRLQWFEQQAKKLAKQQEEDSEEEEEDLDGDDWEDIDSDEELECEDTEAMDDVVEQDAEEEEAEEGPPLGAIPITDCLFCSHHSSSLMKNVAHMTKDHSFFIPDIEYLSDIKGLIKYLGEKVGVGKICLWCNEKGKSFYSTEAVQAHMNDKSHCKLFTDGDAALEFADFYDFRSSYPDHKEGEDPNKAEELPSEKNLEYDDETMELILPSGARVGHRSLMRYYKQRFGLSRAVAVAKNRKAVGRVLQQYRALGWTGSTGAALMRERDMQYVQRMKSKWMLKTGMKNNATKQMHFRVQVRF
assay_info: log2 fold change, soluble protein after heating vs DMSO (PISA); higher = thermal stabilisation; K562 cells, 10 uM, 30 min; active = over 0.2 and 3.5 SD of the protein, either way, in both replicates (recomputed)
The full data set covers some 7,900 targets. This sample favours those with a hit. About 0.6% of all pairs of compound and target were hits.
Enter the number alone.

Below: 2 molecules and their reported log2 fold change.
C/C(=N\NC(=O)c1cccc(S(=O)(=O)N2CCOCC2)c1)c1cc(Cl)ccc1O; 0.015
O=C1c2ccccc2-c2n[nH]c3cccc1c23; 0.042

Input CCN(CC)Cc1ccc2cc(COC(=O)Nc3ccc(C(=O)NO)cc3)ccc2c1 . Output log2 fold change: -0.004

Input C[C@H](Nc1ncnc2nc[nH]c12)c1cc2cccc(Cl)c2c(=O)n1-c1ccccc1 . Output log2 fold change: 0.065

---

measured_on: ZBTB21 (UniProt Q9ULJ3)
Sequence (Q9ULJ3 whole entry, looked up): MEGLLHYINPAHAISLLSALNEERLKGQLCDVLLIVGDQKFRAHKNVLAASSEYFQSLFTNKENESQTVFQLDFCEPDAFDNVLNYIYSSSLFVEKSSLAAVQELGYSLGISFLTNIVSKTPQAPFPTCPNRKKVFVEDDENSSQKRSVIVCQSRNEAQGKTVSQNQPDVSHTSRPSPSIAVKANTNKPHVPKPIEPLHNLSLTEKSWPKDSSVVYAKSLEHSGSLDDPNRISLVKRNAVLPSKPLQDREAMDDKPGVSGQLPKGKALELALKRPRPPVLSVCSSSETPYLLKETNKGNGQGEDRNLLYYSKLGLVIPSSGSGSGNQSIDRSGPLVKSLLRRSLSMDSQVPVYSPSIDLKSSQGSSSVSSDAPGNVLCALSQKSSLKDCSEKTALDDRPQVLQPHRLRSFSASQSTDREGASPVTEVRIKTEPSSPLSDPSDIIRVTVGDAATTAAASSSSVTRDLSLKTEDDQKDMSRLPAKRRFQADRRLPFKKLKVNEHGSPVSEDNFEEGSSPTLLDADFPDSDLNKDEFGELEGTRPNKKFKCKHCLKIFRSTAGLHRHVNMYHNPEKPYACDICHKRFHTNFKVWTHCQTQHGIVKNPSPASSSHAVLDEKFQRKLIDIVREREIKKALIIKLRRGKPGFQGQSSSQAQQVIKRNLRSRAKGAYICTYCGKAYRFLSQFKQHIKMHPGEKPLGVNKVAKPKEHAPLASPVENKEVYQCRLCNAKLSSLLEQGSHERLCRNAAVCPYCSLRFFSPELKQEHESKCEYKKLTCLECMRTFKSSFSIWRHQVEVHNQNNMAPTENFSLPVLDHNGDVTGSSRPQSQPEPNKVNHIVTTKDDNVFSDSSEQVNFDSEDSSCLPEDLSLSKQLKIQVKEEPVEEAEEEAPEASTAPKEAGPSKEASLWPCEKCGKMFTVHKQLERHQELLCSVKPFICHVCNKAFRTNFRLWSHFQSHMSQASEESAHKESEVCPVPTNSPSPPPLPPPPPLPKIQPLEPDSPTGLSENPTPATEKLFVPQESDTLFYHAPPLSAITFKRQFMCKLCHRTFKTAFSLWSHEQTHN
assay_info: log2 fold change, soluble protein after heating vs DMSO (PISA); higher = thermal stabilisation; K562 cells, 10 uM, 30 min; active = over 0.2 and 3.5 SD of the protein, either way, in both replicates (recomputed)
About 7,900 targets were measured; listed, in parts, are those with a hit and a random draw of the rest. About 0.6% of all pairs of compound and target were hits.
recorded_metric: log2 fold change
Enter the number alone.

CC(C)(C)Cn1c(N)nc2ccc(-c3[nH]c(C(C)(C)C)nc3-c3ccc(F)cc3)nc21; 0.121
CCCS(=O)(=O)Nc1ccc(F)c(C(=O)c2c[nH]c3ncc(-c4ccc(Cl)cc4)cc23)c1F; -0.032
CC1=C(C(=O)Nc2cc3cn[nH]c3cc2F)C(c2ccc(C(F)(F)F)cc2)CC(=O)N1 (stereo unspecified); 0.033

Input C#Cc1cccc(Nc2ncnc3cc(OCCOC)c(OCCOC)cc23)c1 . Output log2 fold change: 0.235

Input CCn1cc(-c2ccnc3[nH]c(-c4cccc(CN(C)C)c4)cc23)c(-c2ccc(NC(=O)N(C)C)cc2)n1 . Output log2 fold change: -0.073

Input CCN(CCCOc1ccc2c(Nc3cc(CC(=O)Nc4cccc(F)c4)[nH]n3)ncnc2c1)CCOP(=O)(O)O . Output log2 fold change: -0.043

Input Cc1ccc(NC(=O)c2cccc(C(C)(C)C#N)c2)cc1Nc1ccc2ncn(C)c(=O)c2c1 . Output log2 fold change: -0.03

Input CN1CCc2c(c3ccccc3n2Cc2ccc(C(=O)NO)cc2)C1 . Output log2 fold change: -0.132

Input CC[C@H](C)n1cc(C)c2c(C(=O)NCc3c(C)cc(C)[nH]c3=O)cc(-c3ccc(N4CCNCC4)nc3)cc21 . Output log2 fold change: 0.059

Input C/C(=N\NC(=O)c1cccc(S(=O)(=O)N2CCOCC2)c1)c1cc(Cl)ccc1O . Output log2 fold change: 0.068

Input COc1ccc(Cn2ccc3ccc(C(=O)NO)cc32)cc1 . Output log2 fold change: 0.026

Input Cc1cccc(CC(=O)N2CCc3c2ccc(-c2cn(C)c4ncnc(N)c24)c3F)n1 . Output log2 fold change: 0.016

---

measured_on: YES1 (UniProt P07947)
Sequence (P07947 whole entry, looked up): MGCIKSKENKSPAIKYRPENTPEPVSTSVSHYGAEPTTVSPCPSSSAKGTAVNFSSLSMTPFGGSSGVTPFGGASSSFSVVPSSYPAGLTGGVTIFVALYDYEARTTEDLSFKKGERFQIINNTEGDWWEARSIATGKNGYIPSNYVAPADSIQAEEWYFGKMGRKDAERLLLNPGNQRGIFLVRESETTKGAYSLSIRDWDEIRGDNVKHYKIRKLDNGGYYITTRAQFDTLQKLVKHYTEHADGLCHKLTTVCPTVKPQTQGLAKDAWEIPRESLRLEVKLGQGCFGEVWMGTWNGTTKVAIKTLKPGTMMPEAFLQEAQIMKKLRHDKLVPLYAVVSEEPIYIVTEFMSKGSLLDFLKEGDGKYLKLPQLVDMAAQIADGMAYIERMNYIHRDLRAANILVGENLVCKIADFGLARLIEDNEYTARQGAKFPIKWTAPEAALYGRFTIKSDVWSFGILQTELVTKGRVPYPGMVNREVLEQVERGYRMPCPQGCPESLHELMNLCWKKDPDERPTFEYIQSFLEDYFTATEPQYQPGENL
assay_info: log2 fold change, soluble protein after heating vs DMSO (PISA); higher = thermal stabilisation; K562 cells, 10 uM, 30 min; active = over 0.2 and 3.5 SD of the protein, either way, in both replicates (recomputed)
Targets with a hit are over-represented here; the source holds about 7,900 in all. About 0.6% of all pairs of compound and target were hits.
recorded_metric: log2 fold change
Enter the number alone.

Below: 4 compounds and their reported log2 fold change.
NC(=O)c1ccc2nc(-c3ccc(Oc4ccc(Cl)cc4)cc3)[nH]c2c1; 0.049
CC[C@H](C)[C@H](NC(=O)[C@H]([C@@H](C)CC)N(C)C(C)=O)C(=O)N[C@H](C(=O)N[C@@H](CC(C)C)C(=O)[C@@]1(C)CO1)[C@@H](C)O [epoxomicin]; 0.009
CC(C)C[C@@H](C=O)NC(=O)[C@H](CC(C)C)NC(=O)[C@H](CC(C)C)NC(=O)OCc1ccccc1; 0.068
Cc1cc(SCc2sc(-c3ccc(C(F)(F)F)cc3)nc2C)ccc1OCC(=O)O; 0.06

Now, please, on to the next compound.
Item Cc1ccc(Sc2cncc3sc(C(N)=O)cc23)cc1 was tested on YES1 (UniProt P07947); the reported log2 fold change is 0.03

---

measured_on: ZER1 (UniProt Q7Z7L7)
Sequence (Q7Z7L7 whole entry, looked up): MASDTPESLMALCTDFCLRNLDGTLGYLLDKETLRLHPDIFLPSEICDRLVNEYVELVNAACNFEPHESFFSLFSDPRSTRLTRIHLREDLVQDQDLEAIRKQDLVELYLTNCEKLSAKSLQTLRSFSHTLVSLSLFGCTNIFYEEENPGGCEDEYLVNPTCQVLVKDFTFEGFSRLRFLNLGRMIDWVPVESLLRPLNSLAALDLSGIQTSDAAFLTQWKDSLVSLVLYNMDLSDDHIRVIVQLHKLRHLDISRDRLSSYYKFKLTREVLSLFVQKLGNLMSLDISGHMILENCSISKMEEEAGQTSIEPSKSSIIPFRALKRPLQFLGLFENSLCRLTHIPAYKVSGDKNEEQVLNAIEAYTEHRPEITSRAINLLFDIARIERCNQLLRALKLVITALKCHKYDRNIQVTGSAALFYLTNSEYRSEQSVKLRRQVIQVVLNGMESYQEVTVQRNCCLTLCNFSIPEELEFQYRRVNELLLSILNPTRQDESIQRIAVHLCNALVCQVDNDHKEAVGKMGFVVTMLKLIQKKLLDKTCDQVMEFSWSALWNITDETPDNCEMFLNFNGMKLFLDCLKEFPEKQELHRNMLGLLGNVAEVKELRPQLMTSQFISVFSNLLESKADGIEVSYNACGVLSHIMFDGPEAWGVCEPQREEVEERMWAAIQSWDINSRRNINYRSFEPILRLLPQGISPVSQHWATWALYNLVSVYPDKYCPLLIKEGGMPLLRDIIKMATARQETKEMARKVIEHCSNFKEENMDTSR
assay_info: log2 fold change, soluble protein after heating vs DMSO (PISA); higher = thermal stabilisation; K562 cells, 10 uM, 30 min; active = over 0.2 and 3.5 SD of the protein, either way, in both replicates (recomputed)
About 7,900 targets were measured; listed, in parts, are those with a hit and a random draw of the rest. About 0.6% of all pairs of compound and target were hits.
recorded_metric: log2 fold change

O=C1NC(=O)/C(=C\c2ccc3nccnc3c2)S1; 0.031 (inactive)
CN1CCc2c(c3ccccc3n2Cc2ccc(C(=O)NO)cc2)C1; 0.048 (inactive)
Cc1ccc2c(=O)c3ccccc3n(CCCN)c2c1C; -0.017 (inactive)

Now, please, on to the next compound.
Input Cc1ccc(NC(=O)c2cccc(C(C)(C)C#N)c2)cc1Nc1ccc2ncn(C)c(=O)c2c1 . Output log2 fold change: -0.041 (inactive)

---

Items are presented alongside their recorded log2 fold change.
measured_on: YIPF6 (UniProt Q96EC8)
Sequence (Q96EC8 whole entry, looked up): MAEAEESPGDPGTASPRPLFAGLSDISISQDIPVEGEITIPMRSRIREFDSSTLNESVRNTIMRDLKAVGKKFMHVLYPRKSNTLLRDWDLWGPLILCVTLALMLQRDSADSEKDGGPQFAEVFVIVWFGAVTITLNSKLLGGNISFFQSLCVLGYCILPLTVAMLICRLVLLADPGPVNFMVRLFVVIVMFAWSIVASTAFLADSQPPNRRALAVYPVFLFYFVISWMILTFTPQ
assay_info: log2 fold change, soluble protein after heating vs DMSO (PISA); higher = thermal stabilisation; K562 cells, 10 uM, 30 min; active = over 0.2 and 3.5 SD of the protein, either way, in both replicates (recomputed)
Of roughly 7,900 targets only a part is listed; those with a hit were picked by preference. About 0.6% of all pairs of compound and target were hits.

Below: 3 molecules and their reported log2 fold change.
CC(C)N(C[C@H]1O[C@@H](n2cnc3c(N)ncnc32)[C@H](O)[C@@H]1O)[C@H]1C[C@@H](CCc2nc3cc(C(C)(C)C)ccc3[nH]2)C1; 0.023 (inactive)
NC(=O)Nc1cc(-c2cccc(F)c2)sc1C(=O)N[C@H]1CCCNC1; -0.081 (inactive)
NCC(=O)Nc1ccc(-n2nc(C(F)(F)F)cc2-c2ccc3c(ccc4ccccc43)c2)cc1; 0.071 (inactive)

Input Cc1nc(Nc2ncc(C(=O)Nc3c(C)cccc3Cl)s2)cc(N2CCN(CCO)CC2)n1 . Output log2 fold change: 0.256 (inactive)

---

Items are presented alongside their recorded log2 fold change.
measured_on: ZC3H8 (UniProt Q8N5P1)
Sequence (Q8N5P1 whole entry, looked up): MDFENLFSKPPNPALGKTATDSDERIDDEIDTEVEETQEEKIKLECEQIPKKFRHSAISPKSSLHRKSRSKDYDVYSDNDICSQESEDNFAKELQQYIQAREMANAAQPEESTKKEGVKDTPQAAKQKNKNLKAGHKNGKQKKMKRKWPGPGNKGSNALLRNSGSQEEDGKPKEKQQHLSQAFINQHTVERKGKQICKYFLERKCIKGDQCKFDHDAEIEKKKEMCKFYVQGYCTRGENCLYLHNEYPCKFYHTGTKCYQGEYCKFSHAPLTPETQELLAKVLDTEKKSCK
assay_info: log2 fold change, soluble protein after heating vs DMSO (PISA); higher = thermal stabilisation; K562 cells, 10 uM, 30 min; active = over 0.2 and 3.5 SD of the protein, either way, in both replicates (recomputed)
The full data set covers some 7,900 targets. This sample favours those with a hit. About 0.6% of all pairs of compound and target were hits.
Enter the number alone.

Below: 7 compounds and their reported log2 fold change.
O=C(Nc1cccc(Nc2ncc(Br)c(NCCc3cnc[nH]3)n2)c1)N1CCCC1; 0.038
CS(=O)(=O)N1CCN(Cc2cc3nc(-c4cccc5[nH]ncc45)nc(N4CCOCC4)c3s2)CC1 [pictilisib]; -0.007
CCCc1cc(C)[nH]c(=O)c1CNC(=O)c1cc(-c2ccnc(N3CCN(C)CC3)c2)cc2c1cnn2C(C)C; -0.027
COC(=O)N[C@@H](C)CNc1nccc(-c2cn(C(C)C)nc2-c2cc(Cl)cc(NS(C)(=O)=O)c2F)n1 [encorafenib]; -0.01
Cc1cc(Nc2cc(CN3CCOCC3)c3nc(C)c(Cc4ccc(Cl)cc4F)n3n2)n[nH]1 [gandotinib]; 0.15
O=C(O)c1ccc2c(c1)nc(Nc1cccc(Cl)c1)c1ccncc12 [silmitasertib]; 0.035
O=C1NC(=NCc2cccs2)S/C1=C\c1ccc2ncccc2c1; -0.062

Now, please, on to the next compound.
Input CCn1cc(-c2ccnc3[nH]c(-c4cccc(CN(C)C)c4)cc23)c(-c2ccc(NC(=O)N(C)C)cc2)n1 . Output log2 fold change: 0.092

---

measured_on: YPEL5 (UniProt P62699)
Sequence (P62699 whole entry, looked up): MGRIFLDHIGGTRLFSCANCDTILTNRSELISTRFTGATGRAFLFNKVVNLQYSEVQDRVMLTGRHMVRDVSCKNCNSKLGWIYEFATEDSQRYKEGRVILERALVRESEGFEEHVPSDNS
assay_info: log2 fold change, soluble protein after heating vs DMSO (PISA); higher = thermal stabilisation; K562 cells, 10 uM, 30 min; active = over 0.2 and 3.5 SD of the protein, either way, in both replicates (recomputed)
About 7,900 targets were measured; listed, in parts, are those with a hit and a random draw of the rest. About 0.6% of all pairs of compound and target were hits.
recorded_metric: log2 fold change

Below: 10 compounds and their reported log2 fold change.
Fc1ccc(Cl)cc1-c1nc(Nc2ccncc2)c2nccnc2n1; -0.028 (inactive)
CN1CCN(CCOc2cc(OC3CCOCC3)c3c(Nc4c(Cl)ccc5c4OCO5)ncnc3c2)CC1 [saracatinib]; 0.069 (inactive)
CN1CCN(c2nc(C3=C(c4c[nH]c5ccccc45)C(=O)NC3=O)c3ccccc3n2)CC1 [sotrastaurin]; -0.102 (inactive)
CCCS(=O)(=O)Nc1ccc(F)c(C(=O)c2c[nH]c3ncc(Cl)cc23)c1F; -0.127 (inactive)
CC(C)c1cnn2c(NCc3ccccc3)cc(NCCCCCCN)nc12; -0.083 (inactive)
C/C(=N\NC(=O)c1cccc(S(=O)(=O)N2CCOCC2)c1)c1cc(Cl)ccc1O; 0.032 (inactive)
Cc1ccc(NC(=O)c2ccc(CN3CC[C@H](N(C)C)C3)c(C(F)(F)F)c2)cc1Nc1nccc(-c2cncnc2)n1 [bafetinib]; 0.064 (inactive)
COc1cc2ncnc(Nc3ccc(F)c(Cl)c3)c2cc1OCCCN1CCOCC1 [gefitinib]; -0.239 (inactive)
COC(=O)[C@H](CCSC)NC(=O)c1ccc(NC[C@@H](N)CS)cc1-c1ccccc1; -0.23 (inactive)
NC(=O)c1cnc(N[C@@H]2CCCC[C@@H]2N)nc1Nc1cccc(-n2nccn2)c1; -0.019 (inactive)

Now, please, on to the next compound.
Input Cc1cn(-c2cc(NC(=O)c3ccc(C)c(Nc4nccc(-c5cccnc5)n4)c3)cc(C(F)(F)F)c2)cn1 [nilotinib] . Output log2 fold change: -0.237 (inactive)
